Assay: inhibition of 3D7 malaria parasite growth – strain 3D7 (AID 2306);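 note: 0% = DMSO wells and 100% = chloroquine plus artemisinin control wells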
Details: P. falciparum 3D7 erythrocytic growth, LDH absorbance, 72 h; at 2 µM; stronger effect = higher value
The compounds listed here are annotated with their growth inhibition.
Give just the numeric value; % need not be written.

Consider the reported growth inhibition for these compounds:
c1cncc(-c2cc(N3CCc4ccccc4C3)nc(-c3ccncc3)n2)c1    100
Oc1ccc2[nH]cc(C3CCN(CCCNCc4ccc(-c5ccccc5)cc4)CC3)c2c1    101
CCC(C)NC(=O)CN1CN(c2ccccc2)C2(CCN(C(=O)c3ccc(-c4ccccc4)cc3)CC2)C1=O (stereo not given)    100
COc1ccc(-c2ccc(NC(=O)c3ccc(C#N)cc3)cc2)cc1CNC(C)C    100
CCCCNCC(O)COc1ccccc1-c1ccc(N/N=C/c2cccc3ccccc23)nn1 (stereo not given)    99

Lab note: next compound to report on.
Measured growth inhibition, "c1ccc(C2CCN(Cc3ccc(-c4c[nH]c5nc(NC6CCCC6)ncc45)cc3)CC2)cc1" : 82
